- Tested on: Astrocyte
- Assay Info: Cytotoxicity against rat astrocytes
- Format: functional, cell-based
Measured pIC50 values are reported for all entries that follow.
Please report pIC50 as the negative decimal logarithm of the molar concentration, giving only the number.

Compound	pIC50
COc1cc2c(cc1OC)C(Cc1ccc(C(=O)c3ccccc3)cc1)NCC2 (stereo unspecified)	4.40

Tell me the measured pIC50 of Oc1cc2c(cc1O)C(Cc1ccc(-c3ccccc3)cc1)NCC2 (stereo unspecified) , please.
4.54

Which measured pIC50 value corresponds to `COc1ccc(CCN(C)CCc2ccc(-c3ccccc3)cc2)cc1OC` ?
4.41

Data request, read-out pIC50, for CN1CCc2cc(O)c(O)cc2C1Cc1ccc(-c2ccccc2)cc1 (stereo unspecified)
4.82

Consider the compound shown here: O=NN(CCCl)C(=O)NCCCl [CARMUSTINE] What is its recorded pIC50?
3.81

I'd like to know its pIC50. The compound in question is `COc1cc2c(cc1OC)CN(CCc1ccc(-c3ccccc3)cc1)CC2`
4.81
